B1: H2-Kb / Ed39 (parent complex)
chain 1: GEQVEQRPPHLSVREGDSAVIICTYTDPNSYYFFWYKQEPGAGLQLLMKVFSSTEINEGQGFTVLLNKKDKQLSLNLTAAHPGDSAVYFCATMSNYNVLYFGSGTKLTVEP
chain 2: GALVYQYPRRTICKSGTSMRMECQAVGFQATSVAWYRQSPQKTFELIALSTVNSAIKYEQNFTQEKFPISHPNLSFSSMTVLNAYLEDRGLYLCGARDGSYEQYFGPGTRLTVL
chain 3: not shown
chain 4: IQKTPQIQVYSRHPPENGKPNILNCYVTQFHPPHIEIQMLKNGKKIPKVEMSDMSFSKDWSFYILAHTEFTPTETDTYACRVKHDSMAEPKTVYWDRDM
chain 5: SIINFEKL

Variants of: B1
Test: % of reporter cells activated (NFAT-GFP), raw; further: test concentration or dose not given here
measurement-name: ratio to parent

variant_string="chain 5 K7S" data_value=0.293
variant_string="chain 5 S1M" data_value=0.00499
variant_string="chain 5 S1Q" data_value=0.00347
variant_string="chain 5 N4M" data_value=0.00879
variant_string="chain 5 N4P" data_value=0.174

(I) chain 5 L8R
(II) chain 5 S1F
(III) chain 5 E6L
(IV) chain 5 K7F
Put the items in order so that reported ratio to parent rises from first to last. Order the labels as requested and give them as your answer.
II, III, IV, I
